# TGT: UV-DDB (DDB1-DDB2 heterodimer) (UniProt Q16531;Q92466 1-1140;1-427)
# Sequence (Q16531 whole entry, chain 1 of 2): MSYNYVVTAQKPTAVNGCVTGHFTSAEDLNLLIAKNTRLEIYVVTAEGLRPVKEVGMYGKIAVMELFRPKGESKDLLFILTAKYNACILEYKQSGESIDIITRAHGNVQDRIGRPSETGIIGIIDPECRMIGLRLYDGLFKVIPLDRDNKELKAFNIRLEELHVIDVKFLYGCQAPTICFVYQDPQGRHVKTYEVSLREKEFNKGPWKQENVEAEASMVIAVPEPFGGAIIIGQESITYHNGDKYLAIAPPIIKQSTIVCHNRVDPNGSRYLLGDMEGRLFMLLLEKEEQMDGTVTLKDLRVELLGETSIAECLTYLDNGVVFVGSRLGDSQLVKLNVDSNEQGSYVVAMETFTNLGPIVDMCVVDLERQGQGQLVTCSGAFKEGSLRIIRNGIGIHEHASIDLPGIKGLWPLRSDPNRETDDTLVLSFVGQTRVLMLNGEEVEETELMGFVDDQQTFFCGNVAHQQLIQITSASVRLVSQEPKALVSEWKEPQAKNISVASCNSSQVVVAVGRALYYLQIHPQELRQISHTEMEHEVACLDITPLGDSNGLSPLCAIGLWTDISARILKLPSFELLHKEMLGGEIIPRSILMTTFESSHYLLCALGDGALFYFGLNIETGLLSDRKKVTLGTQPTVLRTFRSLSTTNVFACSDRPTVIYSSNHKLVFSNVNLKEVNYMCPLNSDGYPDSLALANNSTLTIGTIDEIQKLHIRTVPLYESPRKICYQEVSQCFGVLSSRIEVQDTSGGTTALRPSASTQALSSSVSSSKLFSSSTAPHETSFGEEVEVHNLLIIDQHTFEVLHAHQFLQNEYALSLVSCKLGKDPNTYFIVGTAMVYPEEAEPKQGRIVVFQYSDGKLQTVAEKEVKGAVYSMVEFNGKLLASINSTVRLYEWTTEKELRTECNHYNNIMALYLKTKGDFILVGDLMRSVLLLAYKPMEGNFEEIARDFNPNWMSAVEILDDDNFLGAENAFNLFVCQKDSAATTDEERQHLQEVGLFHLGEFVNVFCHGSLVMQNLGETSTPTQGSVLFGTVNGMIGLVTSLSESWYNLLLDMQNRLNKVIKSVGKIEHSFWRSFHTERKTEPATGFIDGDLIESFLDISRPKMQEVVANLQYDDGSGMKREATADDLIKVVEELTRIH
# Sequence (Q92466 whole entry, chain 2 of 2): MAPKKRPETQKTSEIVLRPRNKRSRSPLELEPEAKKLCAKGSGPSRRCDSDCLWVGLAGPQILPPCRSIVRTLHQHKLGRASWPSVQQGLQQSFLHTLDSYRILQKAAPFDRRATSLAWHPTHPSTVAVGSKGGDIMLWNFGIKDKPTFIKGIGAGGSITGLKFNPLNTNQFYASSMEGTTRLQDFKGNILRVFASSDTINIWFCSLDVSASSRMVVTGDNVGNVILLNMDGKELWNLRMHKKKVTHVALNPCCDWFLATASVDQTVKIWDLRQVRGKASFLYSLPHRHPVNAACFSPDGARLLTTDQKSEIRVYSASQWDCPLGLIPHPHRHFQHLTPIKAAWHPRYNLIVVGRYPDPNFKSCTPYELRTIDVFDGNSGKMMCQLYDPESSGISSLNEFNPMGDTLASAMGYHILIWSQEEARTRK
# EXPERIMENT_NOTES: EMSA; no Mg2+; EMSA: 8 nM DNA, 20 mM HEPES pH 7.5, 150 mM NaCl, 2 mM DTT (5 mM for SMUG1), 5% glycerol, 0.5 mg/ml BSA (0.5 mg/l [sic] for SMUG1), +/- 1.5 mM MgCl2, RT 20 min (30 min for displacement); 5% native gel, 1/2x TBE, 4 C
# CONDITIONS_USED: protein: recombinant; tags: DDB1-6xHis; DDB2-Flag; copies: 1;1; label: 3'-6FAM on top strand; blunt, U:G mispair
pKd: −log10 of the molar value.
RECORDED_ENDPOINT: pKd

BINDER	READING
dU:dG37 (dsDNA, dU at position 22 of top strand, opposite dG) DNA 1: CCGAGTCATTCCTGCAGCGAGUCCATGGGAGTCAAAT DNA 2: ATTTGACTCCCATGGGCTCGCTGCAGGAATGACTCGG	7.74
